Every entry's value here was drawn from the supplement of paper PMC5579334.

# Tested on: HS-PSS
# ASSAY METHOD TEXT: % inhibition of CellTiter-Glo viability at highest tested concentration (72 h), relative to DMSO and benzethonium chloride controls; higher = more inhibition
Field: % inhibition. Provide a value for each of the compounds that follow.
One number for each entry, in %.

COMPOUND: CS(=O)(=O)c1ccc(C2=C(c3ccccc3)C(=O)OC2)cc1 [Rofecoxib] (max concentration tested 10000 nM)
UNIT NAME: %
MEASURED NUMBER: -0.36

The following compounds each have a reported value; give each one's % inhibition.
1. CN1CCN(C2CCN(C(=O)Nc3cc(Oc4ccc(NC(=O)C5(C(=O)Nc6ccc(F)cc6)CC5)c(F)c4)ccn3)CC2)CC1 [Golvatinib] (max concentration tested 2500 nM)
2. O[C@H]1CC[C@H](Nc2ncc3nc(Nc4c(F)cc(F)cc4F)n([C@H]4CCOC4)c3n2)CC1 [Tanzisertib] (max concentration tested 10000 nM)

result:
23.6
-0.16

###

# System: HSC1 (primary human Schwann cells)
# ASSAY METHOD TEXT: % inhibition of CellTiter-Glo viability at highest tested concentration (72 h), relative to DMSO and benzethonium chloride controls; higher = more inhibition
just bin them by % inhibition: c1: < 10%; c2: ≥ 10% and < 50%; c3: ≥ 50%

Known results for molecules:
MOLECULE: COc1cc([C@@H]2c3cc4c(cc3[C@@H](O[C@@H]3O[C@@H]5CO[C@@H](C)O[C@H]5[C@H](O)[C@H]3O)[C@H]3COC(=O)[C@H]23)OCO4)cc(OC)c1O [Etoposide] (max concentration tested 10000 nM)
GROUP: c3
--
MOLECULE: CC[C@H](Nc1ncnc2[nH]cnc12)c1nc2cccc(F)c2c(=O)n1-c1ccccc1 [Idelalisib] (max concentration tested 10000 nM)
GROUP: c2
--
MOLECULE: C[C@@H]1CCN(C(=O)CC#N)C[C@@H]1N(C)c1ncnc2[nH]ccc12 [Tofacitinib] (max concentration tested 5000 nM)
GROUP: c2

Attention now turns to another entry.
query: Hello team, could you let me know which band the following molecule falls into: Oc1nc(-c2ccc(C(F)(F)F)cc2)nc2c1CSCC2 [XAV-939] (max concentration tested 10000 nM)
result: c2

###

# Tested on: HS-Sch-2
# ASSAY METHOD TEXT: drug sensitivity score (DSS, CellTiter-Glo viability, 72 h) (DSS (dimensionless)); higher = more sensitive; extreme values may be limits of the assay
I'd appreciate it if you could supply drug sensitivity score values for the items below.
Give bare numbers.

Examples with answers:
COMPOUND: COc1cccc2cc(-c3nc([C@H]4CC[C@H](C(=O)O)CC4)n4ncnc(N)c34)[nH]c12 [OSI-027] (max concentration tested 10000 nM)
MEASURED NUMBER: 2.33
--
COMPOUND: CC1(C)CCC(CN2CCN(c3ccc(C(=O)NS(=O)(=O)c4ccc(NCC5CCOCC5)c([N+](=O)[O-])c4)c(Oc4cnc5[nH]ccc5c4)c3)CC2)=C(c2ccc(Cl)cc2)C1 [Venetoclax] (max concentration tested 1000 nM)
MEASURED NUMBER: 0
--
COMPOUND: Cc1sc2c(c1C)C(c1ccc(Cl)cc1)=N[C@@H](CC(=O)OC(C)(C)C)c1nnc(C)n1-2 [JQ1] (max concentration tested 10000 nM)
MEASURED NUMBER: 13.1
--
COMPOUND: c1ccc([C@H]2CN3CCSC3=N2)cc1 [Levamisole] (max concentration tested 10000 nM)
MEASURED NUMBER: 0
--
COMPOUND: CO[C@@H](C(=O)N1Cc2[nH]nc(NC(=O)c3ccc(N4CCN(C)CC4)cc3)c2C1)c1ccccc1 [Danusertib] (max concentration tested 10000 nM)
MEASURED NUMBER: 11.1
--
COMPOUND: COc1c(OCCCN2CCOCC2)ccc2c1N=C(NC(=O)c1cnc(N)nc1)N1CCN=C21 [Copanlisib] (max concentration tested 1000 nM)
MEASURED NUMBER: 7.87
--
COMPOUND: CO[C@H]1[C@@H](N(C)C(=O)c2ccccc2)C[C@@H]2O[C@@]1(C)n1c3ccccc3c3c4c(c5c6ccccc6n2c5c31)C(=O)NC4 [Midostaurin] (max concentration tested 10000 nM)
MEASURED NUMBER: 12.2
--
COMPOUND: CC[C@]1(O)C[C@@H]2CN(CCc3c([nH]c4ccccc34)[C@@](C(=O)OC)(c3cc4c(cc3OC)N(C)[C@H]3[C@@](O)(C(=O)OC)[C@H](OC(C)=O)[C@]5(CC)C=CCN6CC[C@]43[C@@H]65)C2)C1 [Vinblastine] (max concentration tested 1000 nM)
MEASURED NUMBER: 30
--
COMPOUND: CN(C)C(=N)NC(=N)N [Metformin] (max concentration tested 100000 nM)
MEASURED NUMBER: 0
--
COMPOUND: CCNC(=O)c1noc(-c2cc(C(C)C)c(O)cc2O)c1-c1ccc(CN2CCOCC2)cc1 [Luminespib] (max concentration tested 1000 nM)
MEASURED NUMBER: 23.5

Shift focus to the following entry.
query: Give the value of drug sensitivity score reported for the following: CNC(=O)c1cc(Oc2ccc(NC(=O)Nc3ccc(Cl)c(C(F)(F)F)c3)cc2)ccn1 [Sorafenib] (max concentration tested 1000 nM)
result: 0
